# Test system: Fibroblast
# Assay Name: Incucyte cell viability with human fibroblast; also: unitless GR value; below 1 slowed growth and below 0 cell loss
# Format: toxicity, cell-based
# Test Context: 0 h, 10 µM, compound concentration 10 uM, replicate number 2
Growth Rate reference

// known answers, use as guide
Compound	Growth Rate
CN(C)C(=O)Cn1cc(-c2nc(C3(c4ccc(-c5cnc(N)nc5)cc4)CC3)no2)cn1	-0.89
COc1cc(OC)cc(-c2cc3cnc(N)nc3nc2NC(=O)NC(C)(C)C)c1	0.79
CC(=O)c1c(C)c2cnc(Nc3ccc(N4CCN(CCCCNC(=O)COc5cccc6c5C(=O)N(C5CCC(=O)NC5=O)C6=O)CC4)cn3)nc2n(C2CCCC2)c1=O (stereo not drawn)	0.14
Cc1ncc(C(=O)Nc2cc(C(C)(C)C)on2)cc1-n1cc(-c2cnn(C)c2C)nn1.Cl	0.23
CNC(=O)COc1cc2cc(Nc3nc(N4CCC(C(=O)N(C)C)CC4)ncc3Cl)cc(OC)c2n(C)c1=O	0

Consider the compound CCCN1CCC(C#N)(NC(=O)[C@H](CC(C)(C)C)NC(=O)N2CCOCC2)CC1 and give its recorded Growth Rate.
-0.89

Consider the compound COc1ccc(S(=O)(=O)N2CCOCC2)cc1Nc1ccc2c(n1)N(C1CCN(C)CC1)[C@H](C)C(=O)N2C and give its recorded Growth Rate.
0.55

Consider the compound Cc1ccc(NS(=O)(=O)c2ccc3c(c2)C2C=CCC2C(c2ccc(C(=O)O)cc2)N3)cc1C (stereo not drawn) and give its recorded Growth Rate.
0.82
